Origin of the recorded values: PubChem BioAssay (NCI)

- Tested on: SF-268 CNS
- EXPERIMENT NOTES: NCI-60 one-dose screen, 48 h
- STUDY CONDITIONS: 10 µM
The panel holds about 83,000 compounds, 20% with a hit somewhere; the sample as a whole holds those more often. Activity calls are given as the source filed them. Rule for the calls: active = growth percent below 10; inactive = the rest.
Outcome (select one): active, inactive

STRUCTURE NOTATION	MEASUREMENT TARGET	GROUP LABEL
COc1cc2c(cc1OC)CN(CCCCOc1cc(O)c3c(=O)cc(-c4ccccc4)oc3c1)CC2	SF-268 CNS	inactive
Cc1nc2c(cnn2-c2ccccc2)c(=O)n1-c1ccc(NC(=O)c2ccc(F)cc2)cc1	SF-268 CNS	inactive

Input line: For this molecule, state the assay outcome: COc1cc2oc(-c3cccc(C(=O)Nc4ccc(Cl)cc4)c3)cc(=O)c2c(OCCNC(=O)CNC(=O)OC(C)(C)C)c1OC
Output line: inactive

----------
- Test system: MALME-3M melanoma
- EXPERIMENT NOTES: NCI-60 one-dose screen, 48 h
- STUDY CONDITIONS: 10 µM
Compounds without any hit were thinned out: in the full panel of roughly 83,000, 20% have a hit. Calls of active or inactive are those of the source. Rule for the calls: active = growth percent below 10; inactive = the rest.
Outcome (select one): active, inactive

Previously resolved entries follow.
MOLECULE	GROUP LABEL
O=C(c1ccc(Cl)cc1)C1[C@H](c2ccc(Br)cc2)[C@@H](c2ccccc2)NC12C(=O)Nc1ccc(Br)cc12 (some centres undefined)	active
CCCn1c(=O)c2[nH]c(-c3ccc(OCc4nc5ccccc5[nH]4)cc3)nc2n(CCC)c1=O	active
COc1ccc(-c2ccc(/C=N/NC(=O)c3[nH]c4ccc(Br)cc4c3-c3ccccc3)s2)cc1	inactive

Kindly review the next molecule as well.
Input line: For this molecule, state the assay outcome: N#Cc1ccc(-c2nn(-c3ccc(C(=O)O)cc3)cc2CNc2ccc(Cl)cc2)cc1
Output line: inactive

----------
- System: SF-295 CNS
- EXPERIMENT NOTES: NCI-60 one-dose screen, 48 h (100 = growth as untreated, 0 = no growth, -100 = all killed)
- STUDY CONDITIONS: 10 µM
About 83,000 compounds went through this panel and 20% of them were active in at least one assay; those are over-represented in the sample as a whole.
Known growth of a selection of compounds
Provide only the numeric value, understood in %.

Input line: Which growth is listed for O=C1Nc2ccc(F)cc2/C1=C/c1cccc(OCc2ccccc2)c1 ?
Output line: 35.4

Input line: Which growth is listed for COc1ccc(C2N(c3ccc(Br)cc3)N=C(C(C)=O)N2[C@H]2[C@H](OC(C)=O)O[C@H](COC(C)=O)[C@@H](OC(C)=O)[C@@H]2OC(C)=O)cc1 (stereo partly specified) ?
Output line: 64.1

Input line: Which growth is listed for Cc1cccc(-c2nc(Nc3ccccc3C(=O)O)c3ccccc3n2)c1 ?
Output line: 27.1

Input line: Which growth is listed for O=C(CNc1nc(-c2ccccc2)cs1)Nc1cccc([N+](=O)[O-])c1 ?
Output line: -94.2

Input line: Which growth is listed for O=C(NO)c1ccc(CN2CCN(c3nc(-c4ccccc4)c4ccccc4n3)CC2)cc1 ?
Output line: -11.7

Input line: Which growth is listed for O=C(Nc1ccncc1)c1ccc(-n2c(=O)[nH]c3ccccc3c2=O)cc1 ?
Output line: 95.6

Input line: Which growth is listed for COc1ccc(-c2nc(S(=O)(=O)c3ccc(C)cc3)c(S(=O)(=O)CC(=O)N(C)Cc3ccccc3)o2)cc1 ?
Output line: 78.5

Input line: Which growth is listed for CC(=O)Nc1ccc(-c2cn(-c3cccc(C(=O)Nc4ccc(Cl)c(C(F)(F)F)c4)c3)nn2)cn1 ?
Output line: -64.2

Input line: Which growth is listed for Cc1ccc2nc(COc3ccc(C(=O)NNC(=S)NC(=O)c4ccccc4)cc3)[nH]c2c1 ?
Output line: 25.3

Input line: Which growth is listed for O=C(NCCCCCCCCCC[P+](c1ccccc1)(c1ccccc1)c1ccccc1)c1ccc(-n2nc(-c3ccccc3O)nc2-c2ccccc2O)cc1 ?
Output line: -90.4

Input line: Which growth is listed for O=S(=O)(c1ccc(Cl)cc1)c1nc(-c2ccccc2)oc1S(=O)(=O)c1ccc(Cl)cc1 ?
Output line: 92.9

Input line: Which growth is listed for O=C(N=Nc1c(O)[nH]c2ccc(Br)cc12)c1ccc2nc(-c3ccccc3)[nH]c2c1 ?
Output line: -81.9

Input line: Which growth is listed for COC1=C[C@]23CCC(=O)N2CCc2cc4c(cc2[C@@H]3[C@@H]1OC(=O)CCCC(C)C)OCO4 ?
Output line: 69.9

Input line: Which growth is listed for O=C(Nc1nc2ccc([N+](=O)[O-])cc2s1)Nc1cc(Cl)ccc1I ?
Output line: -71

Input line: Which growth is listed for CN1CCN(c2ccc(Nc3nc(NCCCNC(=O)C4CCCCC4)c4sccc4n3)cc2)CC1 ?
Output line: 38.4

Input line: Which growth is listed for COc1cccc(/C=N/NC(=O)c2ccc3nc(-c4ccc(Cl)cc4)[nH]c3c2)c1O ?
Output line: -91.3

Input line: Which growth is listed for CC(=C(c1ccc(OCCN2CCCCCC2)cc1)c1ccc(OCCN2CCCCCC2)cc1)c1ccc(Cl)cc1 ?
Output line: -80.6

Input line: Which growth is listed for Cc1cccc2cc(-c3cc(-c4ccccc4)nc(=S)[nH]3)c(Cl)nc12 ?
Output line: 64.7

----------
- System: U251 CNS
- EXPERIMENT NOTES: NCI-60 one-dose screen, 48 h (100 = growth as untreated, 0 = no growth, -100 = all killed)
- STUDY CONDITIONS: 10 µM
- Experimental: Growth inhibition of the U251 human tumor cell line is measured as a screen for anti-cancer activity. Cells are grown in 96 well plates and exposed to the test compound for 48 hours. Compounds are tested at a single concentration, which is 10^-5 M for most compounds. The reported endpoint is percent growth (GI% or GIPRCNT), where numbers from 0 - 100% represent growth inhibition, and numbers from -100% - 0 represent cell death. For example, a value of 40 represents 60% growth inhibition. […]
This is part of a sample that, as a whole, favours compounds with a hit. Of some 83,000 tested, about 20% had one in any assay. Activity calls are given as the source filed them. How the source made its calls: active means growth percent below 10; inactive means the rest.
Known growth of a selection of compounds

Input line: Which growth is listed for Cc1cc(=O)oc2cc(OCCCCOc3ccc(/C=C/C(=O)Nc4ccccc4[N+](=O)[O-])cc3)ccc12 ?
Output line: 106% (inactive)

Input line: Which growth is listed for COc1cccc2nc(Nc3ccc(F)c(NC(=O)c4ccc(CN5CCN(C)CC5)c(C(F)(F)F)c4)c3)ccc12 ?
Output line: -42.7% (active)

Input line: Which growth is listed for COc1ccc(CN2[C@H](C(=O)NCCCCCCC(=O)NO)Cc3c([nH]c4ccccc34)[C@H]2C2CC2)cc1 ?
Output line: -20.8% (active)

Input line: Which growth is listed for O=C(Nc1ccc(Cl)c(C(F)(F)F)c1)c1cncc(C#Cc2cnc3ccc(N4CCOCC4)nn23)c1 ?
Output line: 20.2% (inactive)

Input line: Which growth is listed for CN1C(=O)N(C)C2SC(N/N=C/C=C/c3ccccc3)=NC21 (centres undefined) ?
Output line: 79.2% (inactive)

Input line: Which growth is listed for Cc1ccc([N+](=O)[O-])c(C(=O)Nc2ccc(-c3ccc4c(c3)NC(=O)/C4=C\c3ccc[nH]3)cc2)c1 ?
Output line: 6.92% (active)

Input line: Which growth is listed for COC(=O)C(Cc1ccc(O)c(O)c1)NC(=O)C(CSC/C=C(\C)CCCC(C)CCCC(C)CCCC(C)C)NC(C)=O (centres undefined) ?
Output line: 4.85% (active)

Input line: Which growth is listed for Cc1noc2c(Cc3ccccc3)nn(CC(=O)N/N=C/c3ccc(F)cc3)c(=O)c12 ?
Output line: 42.8% (inactive)

Input line: Which growth is listed for COc1ccc(/C(C)=N/N=C2C(=O)N(C)c3ccc(Br)cc32)cc1S(N)(=O)=O ?
Output line: 51.7% (inactive)

Input line: Which growth is listed for CCOC(=O)c1sc(N/N=C(\C)c2ccc3c(c2)Nc2ccccc2S3)nc1C ?
Output line: 27.3% (inactive)

Input line: Which growth is listed for c1ccc(C(=C(c2ccc(OCCN3CCCCC3)cc2)c2ccc(OCCN3CCCCC3)cc2)C2CCCC2)cc1 ?
Output line: -96.4% (active)

Input line: Which growth is listed for CC(=O)c1cc(C(=O)N2c3ccccc3Sc3ccccc32)n2ccc(C)cc12 ?
Output line: 36.1% (inactive)

Input line: Which growth is listed for O=C(Nc1nc2ccc([N+](=O)[O-])cc2s1)Nc1ccccc1I ?
Output line: 2.73% (active)

Input line: Which growth is listed for Cc1cc2nc3c4ccccc4n(CCO)c3nc2cc1C ?
Output line: 64.7% (inactive)

----------
- System: SF-539 CNS
- EXPERIMENT NOTES: NCI-60 one-dose screen, 48 h (100 = growth as untreated, 0 = no growth, -100 = all killed)
- STUDY CONDITIONS: 10 µM
This is part of a sample that, as a whole, favours compounds with a hit. Of some 83,000 tested, about 20% had one in any assay.
Known growth of a selection of molecules
Provide only the numeric value, understood in %.

Examples with answers:
MOLECULE	MEASUREMENT TARGET	growth [%]
O=C1Nc2cc(-c3ccc(NC(=O)c4cccs4)cc3)ccc2/C1=C/c1ccc[nH]1	SF-539 CNS	83.9
CC(=O)NCC1=C(C)C=C2C(=O)[C@](C)(O)C3(CC3)C(C)=C21	SF-539 CNS	-71.1

// next item, growth requested
Input line: Which growth is listed for Cc1ccc2nc(-c3ccc(-c4nnc(SCC(=O)Nc5ccc(Br)cc5)o4)cc3)[nH]c2c1 ?
Output line: 68.3
